Test system: ANKA strain of P. berghei
method: single dose STI in vivo screen in infected mice
Design: species or system Plasmodium berghei
conditionLabel: single 10 mg/kg sc in 3% ethanol and 7% Tween 80; untreated control 5.6 ± 0.3
Task for the reader: assign each of the following compounds its reported Survival (days) sc.
Report only the number, with the unit days understood.

*Q* Dear colleague, I am looking for the recorded Survival (days) sc of the following compound: O=C(O)CCC[C@H]1CC[C@]2(CC1)OOC1(O2)C2CC3CC(C2)CC1C3 (stereo partly shown)
*A* 8.0

*Q* Dear colleague, I am looking for the recorded Survival (days) sc of the following compound: c1ccc(CC2(Cc3ccccc3)OOC3(O2)C2CC4CC(C2)CC3C4)cc1 (stereo not shown)
*A* 8.0

*Q* Dear colleague, I am looking for the recorded Survival (days) sc of the following compound: CC1(O)CCC2(CC1)OOC1(O2)C2CC3CC(C2)CC1C3 (stereo not shown)
*A* 8.0

----------
Task for the reader: assign each of the following compounds its reported Survival (days) sc.
Test system: ANKA strain of P. berghei
method: single dose STI in vivo screen in infected mice
Design: species or system Plasmodium berghei
conditionLabel: single 10 mg/kg sc in 3% ethanol and 7% Tween 80; untreated control 5.6 ± 0.3

*Q* Dear colleague, I am looking for the recorded Survival (days) sc of the following compound: O=C(O)CON=C1CCC2(CC1)OOC1(O2)C2CC3CC(C2)CC1C3 (stereo not drawn)
*A* 7.0/NA/7.0 days

*Q* Dear colleague, I am looking for the recorded Survival (days) sc of the following compound: CC1(C)COC2(CCC3(CC2)OOC2(CC(C)(C)CC(C)(C)C2)O3)OC1
*A* 5.7/NA/5.7 days

*Q* Dear colleague, I am looking for the recorded Survival (days) sc of the following compound: c1ccc(C2CCC3(CC2)OOC2(O3)C3CCCC2CCC3)cc1 (stereo not drawn)
*A* 5.0/NA/5.0 days

----------
Test system: P. berghei ANKA strain
method: treatment: 3x3 mg/kg and 3x1 mg/kg po divided doses in infected mice
Assay type: in vivo, Plasmodium berghei
conditionLabel: 3 × 3 mg/kg days 1, 2, 3 post-infection
Description: Moro NMRI male mice (Fü Albino specific pathogen free) weighing 18±2 g were infected intravenously (i.v.) with 2×10^7 P. berghei ANKA strain-infected erythrocytes from donor mice on day 0 of the experiment. From donor mice with circa 30% parasitemia, heparinized blood was taken and diluted in physiological saline to 10^8 parasitized erythrocytes per ml. An aliquot (0.2 ml) of this suspension was injected i.v. into experimental and control groups of mice. […]
Binary call on Survival (days) p.o. SSV with cut-off 10 days: strictly below means 1, and equality or higher means -1.

*Q* A record lists CCOC(=O)CNCC1CCC2(CC1)OOC1(O2)C2CC3CC(C2)CC1C3.CS(=O)(=O)O (centres unmarked) . Is its Survival (days) p.o. SSV below 10 days?
*A* -1

*Q* A record lists CS(=O)(=O)O.NCC1CCC2(CC1)OOC1(O2)C2CC3CC(C2)CC1C3 (centres unmarked) . Is its Survival (days) p.o. SSV below 10 days?
*A* -1

*Q* A record lists CC(C)(N)C(=O)NCC1CCC2(CC1)OOC1(O2)C2CC3CC(C2)CC1C3 (centres unmarked) . Is its Survival (days) p.o. SSV below 10 days?
*A* -1

*Q* A record lists O=C1CN(C(=O)CC2CCC3(CC2)OOC2(O3)C3CC4CC(C3)CC2C4)CCN1 (centres unmarked) . Is its Survival (days) p.o. SSV below 10 days?
*A* 1

*Q* A record lists Cc1ccc(S(=O)(=O)O)cc1.NCCNC(=O)CC1CCC2(CC1)OOC1(O2)C2CC3CC(C2)CC1C3 (centres unmarked) . Is its Survival (days) p.o. SSV below 10 days?
*A* -1

*Q* A record lists Cc1ccc(S(=O)(=O)O)cc1.O=C(CC1CCC2(CC1)OOC1(O2)C2CC3CC(C2)CC1C3)N1CCNCC1 (centres unmarked) . Is its Survival (days) p.o. SSV below 10 days?
*A* -1

*Q* A record lists CS(=O)(=O)O.NCC(=O)NCC1CCC2(CC1)OOC1(O2)C2CC3CC(C2)CC1C3 (centres unmarked) . Is its Survival (days) p.o. SSV below 10 days?
*A* -1

*Q* A record lists OC(c1cc(C(F)(F)F)nc2c(C(F)(F)F)cccc12)C1CCCCN1 (centres unmarked) [MFQ, mefloquine, reference compound] . Is its Survival (days) p.o. SSV below 10 days?
*A* -1

*Q* A record lists NC(=O)c1cn(CC2CCC3(CC2)OOC2(O3)C3CC4CC(C3)CC2C4)cn1 (centres unmarked) . Is its Survival (days) p.o. SSV below 10 days?
*A* 1

*Q* A record lists O=C(CC1CCC2(CC1)OOC1(O2)C2CC3CC(C2)CC1C3)N1CCC(O)CC1 (centres unmarked) . Is its Survival (days) p.o. SSV below 10 days?
*A* 1

meta.source: patent US6906205B2
